From: the supplement of paper PMC10567573

Listing of entries alongside the reported protein stability index.
B1: ANKRD9 (parent)
chain: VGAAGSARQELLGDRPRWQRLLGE

- Variants of: B1
- measurement description: protein stability index of a GFP-peptide fusion (GPS, HEK-293T) (PSI 1-6); higher = more stable;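 also: lentivirally expressed fusions sorted by FACS into six bins by GFP to DsRed ratio, PSI derived from sequencing read proportions per bin multiplied by bin number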
- settings: c terminus: a fixed tail appended
Write the number on its own, no unit after it.

INSERT INTO assay_data (sequence_input, recorded_number) VALUES
  ('VGAAGSARQELLGDRPRWGRLLGE [Q19G]', 2.94);

Find the recorded protein stability index belonging to VGAAGSNRQELLGDRPRWQRLLGE [A7N] and report it. 3.74

State the recorded protein stability index for this entry: VGAVGSARQELLGDRPRWQRLLGE [A4V] 2.92

Name the reported protein stability index value associated with the variant VGAGGSARQELLGDRPRWQRLLGE [A4G] 1.81
